target or system: T1, human FLT3 (hFLT3) expressed on cells (human, UniProt P36888 27-993)
T1 construct: whole, on cells; One molecule for all cell lines that carry human FLT3; also called RMA-hFLT3; FLT3 on REH cells
T1 sequence (looked up): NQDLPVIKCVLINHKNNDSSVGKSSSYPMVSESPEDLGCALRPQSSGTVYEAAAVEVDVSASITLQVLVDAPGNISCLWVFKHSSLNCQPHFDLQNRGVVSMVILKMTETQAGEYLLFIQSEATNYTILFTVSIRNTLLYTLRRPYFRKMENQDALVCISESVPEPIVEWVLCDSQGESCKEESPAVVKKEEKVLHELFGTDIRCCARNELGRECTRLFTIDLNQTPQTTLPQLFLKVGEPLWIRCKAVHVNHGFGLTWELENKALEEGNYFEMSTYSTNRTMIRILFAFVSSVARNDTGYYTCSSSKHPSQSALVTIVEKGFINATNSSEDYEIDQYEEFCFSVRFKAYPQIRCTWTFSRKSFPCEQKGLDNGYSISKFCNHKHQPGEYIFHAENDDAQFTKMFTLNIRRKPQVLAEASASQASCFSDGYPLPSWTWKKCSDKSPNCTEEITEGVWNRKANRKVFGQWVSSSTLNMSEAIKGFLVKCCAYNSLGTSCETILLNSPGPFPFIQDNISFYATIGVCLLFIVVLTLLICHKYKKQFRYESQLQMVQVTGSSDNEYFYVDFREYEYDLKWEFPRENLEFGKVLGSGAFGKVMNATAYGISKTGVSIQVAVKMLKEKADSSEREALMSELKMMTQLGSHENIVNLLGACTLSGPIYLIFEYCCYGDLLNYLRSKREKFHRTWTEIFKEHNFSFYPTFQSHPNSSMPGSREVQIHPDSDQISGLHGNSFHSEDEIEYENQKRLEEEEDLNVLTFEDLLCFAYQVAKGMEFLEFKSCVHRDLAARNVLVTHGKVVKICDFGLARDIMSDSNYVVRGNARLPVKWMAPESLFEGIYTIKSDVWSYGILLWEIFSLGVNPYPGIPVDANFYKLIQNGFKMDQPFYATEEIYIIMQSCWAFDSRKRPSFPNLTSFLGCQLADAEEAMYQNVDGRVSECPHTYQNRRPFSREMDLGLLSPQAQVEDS
experiment notes: flow cytometry, purified mAb on SEM cells
observation type: EC50 (nM)
Return type: number; implicit unit nM.

Use these answered entries as a reference point.
Request: Give a short answer stating reported EC50 for 1A2.A3 (antibody, V domains shown, Purified murine mAb from a hybridoma subclone) VH: EVQLQESGPELVKPGASVKISCKASGYSFTGYYIHWVKQSPEESLEWIGEIYPNTGITTYNQKFTAKATLTVDKSSNTAYMQLKSLTSEDSAVYYCTRWGDYYGRDYWGQGTSVTVSS VL: DIVLTQSPASLAVSLGQRATISCRASETVDTHGNSFMHWYQQKPGQPPKLLIYRASNLESGIPARFSGSGSRTDFTLTINPVEADDVATYYCQQSNEDPRTFGGGTKLEIK .
Response: 5.47

Request: Give a short answer stating reported EC50 for 4A4.A3 (antibody, V domains shown, Purified murine mAb from a hybridoma subclone) VH: QVTLKESGPGILQPSQTLSLTCSFSGFSLTTYGMGVGWIRQPSGKGLEWLANIWFNDNKYYNSTLKSRLTISKDTSNNQVFLKISSVDTTDTATYYCAQITTVVGTFDYWGQGSPLTVSP VL: RIVMTQSPTTMAASPGEKITITCSASSSISSIYLHWYQQKPGFSPKLLIFRTSDLASGVPPRFGGSGSGTSYSLTIGTMEAEDVATYYCQQGSSFPRTFGGGTKLEIK .
Response: 3.29

Request: Give a short answer stating reported EC50 for 4H2.E3 (antibody, V domains shown, Purified murine mAb from a hybridoma subclone) VH: EVQLQESGPELVKPGASVKMSCKASGYTFTSYLMHWMKQKPGQGLEWIGYINPYSDGIKYNEKFRDKATLTSDKSSNTAYMELSSLTSEDSAVYYCAHSSGYVGYAMDYWGQGTSVTVSS VL: GIVMTQTTPSVPVTPGESVSISCRSSKSLLHSNGNTYLYWFLQRPGQSPQLLIYRMSNLASGVPDRFSGSGSGTTFTLRISRVEAEDVGVYYCMQHLEYPFTFGSGTKLEIK .
Response: 7.57

Request: Give a short answer stating reported EC50 for 11F4.B9 (antibody, V domains shown, Purified murine mAb from a hybridoma subclone) VH: EVQLQESGPELVKPGASVKISCKASGYSFTGYYIHWVKQGPEKSLEWIGEIIPSTGSTIYNQKFKAKATLTVDKSSSTAYLQLKSLTSEDSAVYYCERWGDYYGRDYWGQGTSVTVSS VL: DIVLTQSPASLAVSLGQRATISCRASESVDIYGNSFMHWYQQKPGQPPKLLIYRASNLESGIPARFSGSGSRTDFTLTINPVEADDVATYYCQQSNEDPRTFGGGTKLEIK .
Response: 2.43

// below: EC50 requested for another binder
Request: Give a short answer stating reported EC50 for 12H10.G7 (antibody, V domains shown, Purified murine mAb from a hybridoma subclone) VH: EVQLQESGPELVKPGASVKMSCKASGYTFTRYVMHWVKQRPGQGLEWIGFINPYNDDTKYNEKFKGKATLTSDKSSSTAYMELSSLTSEDSAVYHCARWRQLGSLDSWGQGTTLTVSS VL: NIVLTQSPASLAVSLGQRATISCRASESVDTYGSSFVHWYQQKPGQPPKLLIYLASNLESGVPARFSGSGSRSDFTLTIDPVEADDAATYYCQQNNEEPWTFGGGTKLEIK .
Response: 3.2

All figures here come from patent US20240117054A1.
